testMethodNotes: self-splicing fitness, log relative to wild type (ln ratio); higher = more splicing; Tetrahymena group I intron in knt gene, E. coli kanamycin selection, DiMSum; sequences stand for … in CUCUCU…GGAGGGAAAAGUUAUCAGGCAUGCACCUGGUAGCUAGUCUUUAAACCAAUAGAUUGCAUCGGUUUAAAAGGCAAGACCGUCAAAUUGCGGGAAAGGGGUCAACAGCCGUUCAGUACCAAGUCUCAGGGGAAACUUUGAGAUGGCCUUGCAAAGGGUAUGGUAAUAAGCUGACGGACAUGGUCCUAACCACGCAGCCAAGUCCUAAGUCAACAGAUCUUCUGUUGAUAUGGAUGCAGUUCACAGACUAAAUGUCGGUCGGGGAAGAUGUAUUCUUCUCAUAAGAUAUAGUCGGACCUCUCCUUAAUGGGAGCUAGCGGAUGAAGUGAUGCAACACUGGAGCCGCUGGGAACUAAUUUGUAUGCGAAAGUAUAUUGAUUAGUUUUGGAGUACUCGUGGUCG;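 further: selection with 25 µg/mL kanamycin versus none on LB agar overnight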
conditionSummary: 37 °C
Quick reference for self-splicing fitness (ln) among some sequences
Kindly provide the number alone.

Consider the worked cases shown below.
querySequence	self-splicing fitness (ln)
UGACAGCAAUAUUACGCACC	-0.767
GGAUAGCAAUAUUACGUCUG	-0.0327
CUCUAGCAAUAUUACGCAAU	-3.09
CUAGAGCAAUAUUACGAGUG	-0.868
UUGCAGCAAUAUUACGUUUU	-1.85
UACAAGCAAUAUUACGAUCC	-1.78
UUUGAGCAAUAUUACGCGCG	-0.956
GCAAAGCAAUAUUACGACCU	0.204
AGCUAGCAAUAUUACGUUCC	-1.76
UGCAAGCAAUAUUACGCCUA	0.0781

Exam item: // Input: UGAAAGCAAUAUUACGGCGU . Output its self-splicing fitness (ln) only.
Marked response: 0.0159

Exam item: // Input: GGUGAGCAAUAUUACGUGCA . Output its self-splicing fitness (ln) only.
Marked response: -0.496

Exam item: // Input: GAUAAGCAAUAUUACGAGCU . Output its self-splicing fitness (ln) only.
Marked response: -1.13

Exam item: // Input: CAGUAGCAAUAUUACGUUUG . Output its self-splicing fitness (ln) only.
Marked response: -0.625

Exam item: // Input: GUGUAGCAAUAUUACGACUC . Output its self-splicing fitness (ln) only.
Marked response: -0.0849

Exam item: // Input: CAUCAGCAAUAUUACGUCAU . Output its self-splicing fitness (ln) only.
Marked response: -1.78

Exam item: // Input: AUAAAGCAAUAUUACGGCCU . Output its self-splicing fitness (ln) only.
Marked response: 0.382

Exam item: // Input: ACCCAGCAAUAUUACGGUUA . Output its self-splicing fitness (ln) only.
Marked response: -0.361

Exam item: // Input: ACACAGCAAUAUUACGAAUA . Output its self-splicing fitness (ln) only.
Marked response: -1.6

Exam item: // Input: CAGCAGCAAUAUUACGAUAA . Output its self-splicing fitness (ln) only.
Marked response: -2.24

Exam item: // Input: GGGUAGCAAUAUUACGGGGG . Output its self-splicing fitness (ln) only.
Marked response: -2.09

Exam item: // Input: GGCUAGCAAUAUUACGUAGG . Output its self-splicing fitness (ln) only.
Marked response: -1.78

Exam item: // Input: GGCUAGCAAUAUUACGGGUA . Output its self-splicing fitness (ln) only.
Marked response: -0.368

Exam item: // Input: UGUAAGCAAUAUUACGUUCA . Output its self-splicing fitness (ln) only.
Marked response: -0.118

Exam item: // Input: CGAAAGCAAUAUUACGAUGA . Output its self-splicing fitness (ln) only.
Marked response: -0.508

Exam item: // Input: AAACAGCAAUAUUACGCCUU . Output its self-splicing fitness (ln) only.
Marked response: -0.238

Exam item: // Input: AUGCAGCAAUAUUACGCACC . Output its self-splicing fitness (ln) only.
Marked response: -0.696

Exam item: // Input: UUGAAGCAAUAUUACGGCGC . Output its self-splicing fitness (ln) only.
Marked response: -0.68

Exam item: // Input: ACGGAGCAAUAUUACGCUAU . Output its self-splicing fitness (ln) only.
Marked response: -2.1

Exam item: // Input: CCACAGCAAUAUUACGUUGU . Output its self-splicing fitness (ln) only.
Marked response: -2.83

Exam item: // Input: CAUGAGCAAUAUUACGACCG . Output its self-splicing fitness (ln) only.
Marked response: 0.276

Exam item: // Input: GGACAGCAAUAUUACGUACA . Output its self-splicing fitness (ln) only.
Marked response: 0.0922

* * *

testMethodNotes: self-splicing fitness, log relative to wild type (ln ratio); higher = more splicing; Tetrahymena group I intron in knt gene, E. coli kanamycin selection, DiMSum; sequences stand for … in CUCUCU…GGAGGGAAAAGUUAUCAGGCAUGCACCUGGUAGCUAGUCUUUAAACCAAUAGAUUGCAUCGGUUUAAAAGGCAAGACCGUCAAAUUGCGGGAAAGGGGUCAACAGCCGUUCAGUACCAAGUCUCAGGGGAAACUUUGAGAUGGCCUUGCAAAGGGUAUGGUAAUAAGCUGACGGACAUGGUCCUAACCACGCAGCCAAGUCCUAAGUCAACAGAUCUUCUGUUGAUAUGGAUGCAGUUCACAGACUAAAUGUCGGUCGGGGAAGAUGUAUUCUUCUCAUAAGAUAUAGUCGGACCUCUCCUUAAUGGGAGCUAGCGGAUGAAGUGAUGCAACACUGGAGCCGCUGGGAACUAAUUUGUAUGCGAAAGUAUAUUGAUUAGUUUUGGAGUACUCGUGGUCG
conditionSummary: 30 °C
Binary call on self-splicing fitness (ln): Criterion met from -3 upward, Criterion not met beneath that.

Before answering, review these 6 worked examples.
querySequence	discreteLabel
GACUAGCAAUAUUACGCUGA	Criterion met
GAUAAGCAAUAUUACGUCGG	Criterion not met
GUACAGCAAUAUUACGCCCU	Criterion met
UAGAAGCAAUAUUACGGGUC	Criterion not met
UGGCAGCAAUAUUACGGGAU	Criterion met
CCAAAGCAAUAUUACGUUGA	Criterion not met

Exam item: Threshold query (self-splicing fitness (ln) >= -3) on UUAAAGCAAUAUUACGCCGA
Marked response: Criterion met

Exam item: Threshold query (self-splicing fitness (ln) >= -3) on AAGCAGCAAUAUUACGAGAG
Marked response: Criterion not met

Exam item: Threshold query (self-splicing fitness (ln) >= -3) on UGCAAGCAAUAUUACGAGAC
Marked response: Criterion not met

Exam item: Threshold query (self-splicing fitness (ln) >= -3) on GUAGAGCAAUAUUACGGAAU
Marked response: Criterion met

Exam item: Threshold query (self-splicing fitness (ln) >= -3) on AUCAAGCAAUAUUACGGUAU
Marked response: Criterion met

Exam item: Threshold query (self-splicing fitness (ln) >= -3) on CCCAAGCAAUAUUACGAUAA
Marked response: Criterion not met

* * *

testMethodNotes: self-splicing fitness, log relative to wild type (ln ratio); higher = more splicing; Tetrahymena group I intron in knt gene, E. coli kanamycin selection, DiMSum; sequences stand for … in CUCUCU…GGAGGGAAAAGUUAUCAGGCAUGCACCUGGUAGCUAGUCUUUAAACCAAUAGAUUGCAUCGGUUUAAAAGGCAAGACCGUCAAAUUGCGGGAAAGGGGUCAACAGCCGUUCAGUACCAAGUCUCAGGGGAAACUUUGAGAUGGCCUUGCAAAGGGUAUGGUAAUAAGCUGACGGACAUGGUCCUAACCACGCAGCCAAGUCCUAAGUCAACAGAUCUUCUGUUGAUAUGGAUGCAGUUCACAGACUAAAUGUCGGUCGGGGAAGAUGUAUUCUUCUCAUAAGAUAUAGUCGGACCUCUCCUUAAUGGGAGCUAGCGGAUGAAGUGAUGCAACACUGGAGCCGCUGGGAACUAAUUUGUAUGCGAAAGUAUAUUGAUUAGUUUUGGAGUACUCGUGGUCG
conditionSummary: 37 °C
Binary call on self-splicing fitness (ln): TRUE from -2 upward, FALSE beneath that.

Before answering, review these 3 worked examples.
querySequence	discreteLabel
ACCCAGCAAUAUUACGUUAU	TRUE
GAAUAGCAAUAUUACGAGAG	FALSE
UACUAGCAAUAUUACGAAUC	FALSE

Exam item: Threshold query (self-splicing fitness (ln) >= -2) on GUAGAGCAAUAUUACGAUUC
Marked response: TRUE

Exam item: Threshold query (self-splicing fitness (ln) >= -2) on CGGUAGCAAUAUUACGAAAC
Marked response: FALSE

Exam item: Threshold query (self-splicing fitness (ln) >= -2) on CUUGAGCAAUAUUACGAAUU
Marked response: FALSE

Exam item: Threshold query (self-splicing fitness (ln) >= -2) on GAUAAGCAAUAUUACGGAUC
Marked response: TRUE

Exam item: Threshold query (self-splicing fitness (ln) >= -2) on AUAGAGCAAUAUUACGUGGG
Marked response: TRUE
